# credit: ChEMBL document CHEMBL4680261

procedureDetails: AUC (0 to t) in BALB/c mouse at 16 mg/kg, iv measured upto 24 hrs by HPLC-MS analysis
Type: ADME, organism-based
Design: route intravenous, dose 16 mg/kg, time <=24
measurementContext: in vivo
measuredAttribute: AUC(0-t) at 24 h

>>> result("CC(C)CCc1cn(-c2ccc(NC(=O)Nc3cccc4cnccc34)cc2)nn1")
"23700 ng·h/mL"

====

Test system: Human immunodeficiency virus 1
procedureDetails: Antiviral activity against HIV-1 NL4-3 infected in human TZM-bl cells infected with supernatants from virus-infected human H9 cells treated with compound for 72 hrs assessed as reduction in luciferase expression measured after 48 hrs by luciferase reporter gene assay based BiCycle assay
Type: functional, organism-based
measurementContext: Human immunodeficiency virus 1, NL4-3
pIC50: −log10 of the molar value.
measuredAttribute: pIC50

>>> measurednumber("CCCCc1cn(-c2ccc(NC(=O)Nc3cc(OC4CCCC4)ccc3C)cc2)nn1")
6.70
>>> measurednumber("CCCCc1cn(-c2ccc(NC(=O)Nc3cc(OC4CCOC4)ccc3C)cc2)nn1 (configuration not stated)")
5.59
>>> measurednumber("CCCCc1cn(-c2ccc(NC(=O)Nc3cccc4cnccc34)cc2)nn1")
5.66
>>> measurednumber("CC(C)CCc1cn(-c2ccc(NC(=O)Nc3cccc4cnccc34)cc2)nn1")
5.68
>>> measurednumber("CCCCc1cn(-c2ccc(NC(=O)Nc3ccccc3C)cc2)nn1")
5.95
>>> measurednumber("CCCCc1cn(-c2ccc(NC(=O)Nc3cc(OP(=O)(OCC)OCC)ccc3C)cc2)nn1")
5.26
>>> measurednumber("CCOCc1cn(-c2ccc(NC(=O)Nc3cc(C(C)C)ccc3C)cc2)nn1")
5.42

====

procedureDetails: Half life in BALB/c mouse at 8 mg/kg, iv measured upto 24 hrs by HPLC-MS analysis
Type: ADME, organism-based
measurementContext: in vivo
measuredAttribute: half-life (h)

>>> measurednumber("CC(C)CCc1cn(-c2ccc(NC(=O)Nc3cccc4cnccc34)cc2)nn1")
8.97

====

procedureDetails: Plasma concentration in BALB/c mouse at 16 to 32 mg/kg, iv measured after 240 mins
Assay type: ADME, organism-based
measurementContext: dose 16-32 mg/kg
measuredAttribute: concentration at 4 h (µM)

>>> measurednumber("CC(C)CCc1cn(-c2ccc(NC(=O)Nc3cccc4cnccc34)cc2)nn1")
10

====

procedureDetails: AUC (0 to t) in BALB/c mouse at 8 mg/kg, iv measured upto 24 hrs by HPLC-MS analysis
Assay type: ADME, organism-based
Set-up: route intravenous, dose 8 mg/kg, time <=24
measurementContext: in vivo
measuredAttribute: AUC(0-t) at 24 h (ng·h/mL)

>>> measurednumber("CC(C)CCc1cn(-c2ccc(NC(=O)Nc3cccc4cnccc34)cc2)nn1")
25600

====

procedureDetails: Drug excretion in BALB/c mouse at 16 to 32 mg/kg, iv measured upto 24 hrs
Type: ADME, organism-based
measurementContext: in vivo, dose 16-32 mg/kg, read-out: Drug excretion
measuredAttribute: dose excreted at 24 h (%)

>>> measurednumber("CC(C)CCc1cn(-c2ccc(NC(=O)Nc3cccc4cnccc34)cc2)nn1")
100

====

procedureDetails: AUC (0 to t) in BALB/c mouse at 32 mg/kg, iv measured upto 24 hrs by HPLC-MS analysis
Type: ADME, organism-based
Design: route intravenous, dose 32 mg/kg, time <=24
measurementContext: in vivo
measuredAttribute: AUC(0-t) at 24 h (ng·h/mL)

>>> measurednumber("CC(C)CCc1cn(-c2ccc(NC(=O)Nc3cccc4cnccc34)cc2)nn1")
98500
